Test system: Prostate cells (PC-3)
Experiment: Cytotoxicity / ATP level in PC-3 cells, 5-day treatment
Conditions: read-out: Mean CC50 ± SD in Prostate cells (PC-3); 5-day treatment
endpoint: CC50 (nM)
The figure you give is taken to be in nM; do not add the unit.

I'd like to know its CC50. The compound in question is Nc1ccn([C@H]2CC[C@@H](CO)O2)c(=O)n1 [ddC, dideoxycytosine]
800

----------
Let's look at some molecules and their measured pIC50.
Target: recombinant human PolRMT (Homo sapiens, UniProt O00411)
Construct: purchased Enzymax (Lexington, KY)
Sequence (O00411 42-1230): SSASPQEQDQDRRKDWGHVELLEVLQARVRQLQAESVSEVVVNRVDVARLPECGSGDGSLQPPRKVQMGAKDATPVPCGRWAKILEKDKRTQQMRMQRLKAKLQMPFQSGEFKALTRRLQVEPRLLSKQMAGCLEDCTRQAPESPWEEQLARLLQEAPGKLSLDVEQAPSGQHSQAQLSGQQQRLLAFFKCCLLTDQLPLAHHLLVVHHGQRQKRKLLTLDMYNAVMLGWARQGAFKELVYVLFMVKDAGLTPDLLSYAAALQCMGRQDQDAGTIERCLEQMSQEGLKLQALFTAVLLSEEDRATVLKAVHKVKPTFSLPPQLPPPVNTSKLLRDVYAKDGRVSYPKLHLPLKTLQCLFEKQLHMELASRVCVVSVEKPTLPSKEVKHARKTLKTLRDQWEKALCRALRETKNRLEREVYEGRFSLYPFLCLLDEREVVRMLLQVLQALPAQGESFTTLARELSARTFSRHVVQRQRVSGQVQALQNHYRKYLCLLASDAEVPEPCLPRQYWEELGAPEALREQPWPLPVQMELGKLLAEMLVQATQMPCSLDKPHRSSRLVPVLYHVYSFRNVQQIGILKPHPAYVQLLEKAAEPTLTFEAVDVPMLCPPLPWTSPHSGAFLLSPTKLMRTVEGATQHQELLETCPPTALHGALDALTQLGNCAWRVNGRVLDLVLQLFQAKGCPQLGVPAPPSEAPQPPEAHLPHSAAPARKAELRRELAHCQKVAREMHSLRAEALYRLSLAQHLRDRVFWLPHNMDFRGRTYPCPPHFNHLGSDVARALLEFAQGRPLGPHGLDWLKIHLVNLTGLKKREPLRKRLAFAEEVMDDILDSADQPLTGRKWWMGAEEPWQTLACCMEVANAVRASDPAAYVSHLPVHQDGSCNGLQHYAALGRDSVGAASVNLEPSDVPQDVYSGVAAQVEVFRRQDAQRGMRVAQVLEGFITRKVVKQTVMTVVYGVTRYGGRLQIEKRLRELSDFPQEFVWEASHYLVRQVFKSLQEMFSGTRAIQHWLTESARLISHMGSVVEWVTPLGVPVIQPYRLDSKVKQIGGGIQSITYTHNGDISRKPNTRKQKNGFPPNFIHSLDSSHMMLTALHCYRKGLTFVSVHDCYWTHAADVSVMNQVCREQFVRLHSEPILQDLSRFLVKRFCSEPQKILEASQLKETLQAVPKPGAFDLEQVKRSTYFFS
Test: Inhibition of PolRMT-catalyzed RNA synthesis
Format: biochemical
Details: triphosphate form of the compound tested (Table 4); read-out: Mean IC50 ± SD for PolRMT
pIC50: −log10 of the molar value.

INSERT INTO measurements (cpd_smiles, endpoint, recorded_result) VALUES
  ('[N-]=[N+]=N[C@]1(CO)O[C@@H](n2ccc(N)nc2=O)[C@H](O)[C@@H]1O', 'pIC50', 5.42),
  ('CC(C)OC(=O)[C@H](C)N[P@](=O)(OC[C@H]1O[C@@](C#N)(c2ccc3c(N)ncnn23)[C@](C)(O)[C@@H]1OC(=O)C(C)C)Oc1ccccc1', 'pIC50', '< 3.30');

Next, consider the following molecule.
Could you tell me which pIC50 is on file for CC(C)OC(=O)[C@H](C)N[P@](=O)(OC[C@H]1O[C@@H](n2ccc(=O)[nH]c2=O)[C@](C)(F)[C@@H]1O)Oc1ccccc1 ?
< 3.30
